Attribution: patent EP4763845A1

Please go through the items and note down their F.
Test: Pharmacokinetic test in rats
Assay type: in vivo, SD rats
Settings: i.g. (5 mg/kg), vehicle 5% DMSO+5% Solutol+90% (20% SBE-β-CD)
Answers are plain numbers, in %.

Consider the following items and state reported F for each.
1. COc1cc(O[C@H]2C(C)(C)[C@H](NC(=O)c3ccc(N4CCC(CN5CCN(c6ccc(C(=O)N[C@H]7CCC(=O)NC7=O)c(F)c6)CC5)CC4)cc3)C2(C)C)ccc1C#N [Control compound, reference compound]
2. COc1cc(O[C@H]2C(C)(C)[C@H](NC(=O)c3ccc(N4CCC(CN5CCN6c7cc(F)c(C8CCC(=O)NC8=O)cc7CC[C@@H]6C5)CC4)nn3)C2(C)C)ccc1C#N (stereo partly shown) [Trifluoroacetate of compound 60]

1: 26.9; 2: 57.5

Which F is reported for this compound? COc1cc(O[C@H]2C(C)(C)[C@H](NC(=O)c3ccc(N4CCC(CN5CCN6c7cc(F)c(C8CCC(=O)NC8=O)cc7CC[C@H]6C5)CC4)cc3)C2(C)C)ccc1C#N (stereo partly shown)
46.5

----------
Experiment: Pharmacokinetic test in mice
Format: in vivo, ICR mice
Settings: mouse, plasma, po, i.g. (5 mg/kg), Vehicle 3: 5% DMSO+5% Solutol+90% (20% SBE-β-CD)
Criterion: AUC(0-t) meeting or surpassing 30000 ng·h/mL. Met: fulfilled. Not met: not fulfilled.

Test whether the molecule COc1cc(O[C@H]2C(C)(C)[C@H](NC(=O)c3ccc(N4CCC(CN5CCN6c7cc(F)c(C8CCC(=O)NC8=O)cc7CC[C@H]6C5)CC4)nn3)C2(C)C)ccc1C#N (some centres unmarked) [Trifluoroacetate of compound 61] records AUC(0-t) of 30000 ng·h/mL or higher.
not fulfilled

Test whether the molecule COc1cc(O[C@H]2C(C)(C)[C@H](NC(=O)c3ccc(N4CCC(CN5CCN6c7cc(F)c(C8CCC(=O)NC8=O)cc7CC[C@@H]6C5)CC4)nn3)C2(C)C)ccc1C#N (some centres unmarked) [Trifluoroacetate of compound 60] records AUC(0-t) of 30000 ng·h/mL or higher.
fulfilled

Test whether the molecule CC1(C)[C@H](NC(=O)c2ccc(N3CCC(CN4CCN5c6cc(F)c(C7CCC(=O)NC7=O)cc6CC[C@@H]5C4)CC3)cc2)C(C)(C)[C@H]1Oc1ccc(C#N)c2ncccc12 (some centres unmarked) [Compound 30] records AUC(0-t) of 30000 ng·h/mL or higher.
fulfilled

----------
Assay: Pharmacokinetic test in rats
Type: in vivo, SD rats
Conditions: rat, in vivo, po, i.g. (5 mg/kg), vehicle 5% DMSO+ 5% Solutol+30% PEG-400+60% (20% SBE-β-CD)
Value kind: AUC(0-t) (ng·h/mL)
One number for each entry, in ng·h/mL.

Which AUC(0-t) is reported for this compound? COc1cc(O[C@H]2C(C)(C)[C@H](NC(=O)c3ccc(N4CCC(CN5CCN6c7cc(F)c(C8CCC(=O)NC8=O)cc7CC[C@@H]6C5)CC4)cc3)C2(C)C)ccc1C#N (stereo partly shown)
6010

----------
Assay: Pharmacokinetic test in rats
Format: in vivo, SD rats
Settings: male, SD, rat, plasma, po, i.g. (5 mg/kg), vehicle 5% DMSO+5% Solutol+10% PEG400+80% (20% SBE-β-CD)
Value kind: AUC(0-t)
Don't forget the unit after the number, please.

Which AUC(0-t) is reported for this molecule? COc1cc(O[C@H]2C(C)(C)[C@H](NC(=O)c3ccc(N4CCC5(CC4)CC(N4CCN6c7cc(F)c(N8CCC(=O)NC8=O)cc7CC[C@@H]6C4)C5)cc3)C2(C)C)ccc1C#N [Compound 79]
6970 ng·h/mL

----------
Assay: Pharmacokinetic test in rats
Assay type: in vivo, SD rats
Conditions: male, SD, rat, plasma, po, i.g. (5 mg/kg), vehicle 5% DMSO+5% Solutol+90% (20% SBE-β-CD)
Value kind: AUC(0-t) (ng·h/mL)
Numbers only, in ng·h/mL.

Which AUC(0-t) is reported for this compound? COc1cc(O[C@H]2C(C)(C)[C@H](NC(=O)c3ccc(N4CCC(CN5CCN(c6ccc(C(=O)N[C@H]7CCC(=O)NC7=O)c(F)c6)CC5)CC4)cc3)C2(C)C)ccc1C#N [Control compound, reference compound]
2870

----------
Molecular target: AR protein (Homo sapiens, UniProt P10275)
Construct: VCap is a human prostate cancer cell line purchased from ATCC; host or cells: VCaP human prostate cancer cells
Sequence (P10275 whole entry): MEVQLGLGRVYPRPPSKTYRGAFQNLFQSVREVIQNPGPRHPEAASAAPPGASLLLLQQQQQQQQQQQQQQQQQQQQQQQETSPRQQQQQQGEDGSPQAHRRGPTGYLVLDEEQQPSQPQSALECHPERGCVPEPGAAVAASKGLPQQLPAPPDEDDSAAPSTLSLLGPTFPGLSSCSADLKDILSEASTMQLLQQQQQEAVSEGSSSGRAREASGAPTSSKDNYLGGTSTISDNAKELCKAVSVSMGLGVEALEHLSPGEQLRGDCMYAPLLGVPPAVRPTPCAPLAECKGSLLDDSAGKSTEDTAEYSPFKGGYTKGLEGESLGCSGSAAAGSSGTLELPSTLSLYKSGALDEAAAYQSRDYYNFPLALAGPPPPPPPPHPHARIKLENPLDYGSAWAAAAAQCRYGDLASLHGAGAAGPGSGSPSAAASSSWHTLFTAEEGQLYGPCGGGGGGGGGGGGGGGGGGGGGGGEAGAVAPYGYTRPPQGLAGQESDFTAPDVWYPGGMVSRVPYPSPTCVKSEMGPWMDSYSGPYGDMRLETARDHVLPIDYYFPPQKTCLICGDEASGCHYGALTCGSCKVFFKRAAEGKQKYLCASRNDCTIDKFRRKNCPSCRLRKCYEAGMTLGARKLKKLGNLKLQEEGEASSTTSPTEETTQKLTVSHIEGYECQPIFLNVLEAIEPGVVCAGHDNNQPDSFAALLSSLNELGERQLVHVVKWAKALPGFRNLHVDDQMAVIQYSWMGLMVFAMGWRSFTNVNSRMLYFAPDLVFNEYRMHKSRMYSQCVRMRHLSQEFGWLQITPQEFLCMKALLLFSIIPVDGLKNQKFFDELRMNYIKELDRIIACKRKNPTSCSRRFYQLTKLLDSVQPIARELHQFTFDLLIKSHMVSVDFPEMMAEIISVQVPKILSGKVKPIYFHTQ
Assay: Detection of AR degradation in VCaP cells (automated western blot)
Assay type: cell-based
Details: degradation of AR protein in VCaP cells, 24 hours incubation; read-out: DC50
Value kind: DC50

Reference set (5 entries):
CC1(C)[C@H](NC(=O)c2ccc(N3CCC(CN4CCN5c6cc(F)c(N7CCC(=O)NC7=O)cc6CC[C@H]5C4)CC3)cc2)C(C)(C)[C@H]1Oc1ccc(C#N)c(Cl)c1 = < 100 nM
CC1(C)[C@H](NC(=O)c2ccc(N3CCC(CN4CCN5c6cc(F)c(C7CCC(=O)NC7=O)cc6CC[C@H]5C4)CC3)cc2)C(C)(C)[C@H]1Oc1ccc(C#N)c2ncccc12 (stereo partly drawn) = < 100 nM
COc1cc(O[C@H]2C(C)(C)[C@H](NC(=O)c3ccc(N4CCC(CN5CCN6c7cc(F)c(C(=O)NC8CCC(=O)NC8=O)cc7CC[C@H]6C5)CC4)cc3)C2(C)C)ccc1C#N (stereo partly drawn) [Trifluoroacetate of compound 3] = < 100 nM
COc1cc(O[C@H]2C(C)(C)[C@H](NC(=O)c3ccc(N4CCC(CN5CCN6c7ncc(C8CCC(=O)NC8=O)cc7CC[C@H]6C5)CC4)cc3)C2(C)C)ccc1C#N (stereo partly drawn) = < 100 nM
[2H]C([2H])([2H])Oc1cc(O[C@H]2C(C)(C)[C@H](NC(=O)c3ccc(N4CCC5(CC4)CC(CN4CCN6c7cc(F)c(C8CCC(=O)NC8=O)cc7CC[C@H]6C4)C5)cc3)C2(C)C)ccc1C#N (stereo partly drawn) = < 100 nM

Consider the following items and state reported DC50 for each.
1. COc1cc(O[C@H]2C(C)(C)[C@H](NC(=O)c3ccc(N4CCC(CN5CCN6c7ccc(N8CCC(=O)NC8=O)cc7CCC6C5)CC4)cc3)C2(C)C)ccc1C#N (stereo partly drawn)
2. COc1cc(O[C@H]2C(C)(C)[C@H](NC(=O)c3ccc(N4CCC5(CC4)CC(CN4CCN6c7cc(F)c(C(=O)N[C@H]8CCC(=O)NC8=O)cc7CC[C@@H]6C4)C5)cc3)C2(C)C)ccc1C#N [Trifluoroacetate of compound 5]
3. COc1cc(O[C@H]2C(C)(C)[C@H](NC(=O)c3ccc(N4CCC(N5CCN6c7cc(F)c(C(=O)N[C@@H]8CCC(=O)NC8=O)cc7CC[C@H]6C5)CC4)cc3)C2(C)C)ccc1C#N [Trifluoroacetate of compound 25]
4. [2H]C([2H])([2H])Oc1cc(O[C@H]2C(C)(C)[C@H](NC(=O)c3ccc(N4CCC5(CC4)CC(CN4CCN6c7cc(F)c(N8CCC(=O)NC8=O)cc7CC[C@@H]6C4)C5)cc3)C2(C)C)ccc1C#N [Trifluoroacetate of compound 44]

1. < 100 nM
2. < 100 nM
3. < 100 nM
4. < 100 nM

----------
Target: hERG potassium channel (Homo sapiens)
Construct: expressed in transfected cells; host or cells: CHO cells stably expressing hERG
Sequence (Q12809 whole entry): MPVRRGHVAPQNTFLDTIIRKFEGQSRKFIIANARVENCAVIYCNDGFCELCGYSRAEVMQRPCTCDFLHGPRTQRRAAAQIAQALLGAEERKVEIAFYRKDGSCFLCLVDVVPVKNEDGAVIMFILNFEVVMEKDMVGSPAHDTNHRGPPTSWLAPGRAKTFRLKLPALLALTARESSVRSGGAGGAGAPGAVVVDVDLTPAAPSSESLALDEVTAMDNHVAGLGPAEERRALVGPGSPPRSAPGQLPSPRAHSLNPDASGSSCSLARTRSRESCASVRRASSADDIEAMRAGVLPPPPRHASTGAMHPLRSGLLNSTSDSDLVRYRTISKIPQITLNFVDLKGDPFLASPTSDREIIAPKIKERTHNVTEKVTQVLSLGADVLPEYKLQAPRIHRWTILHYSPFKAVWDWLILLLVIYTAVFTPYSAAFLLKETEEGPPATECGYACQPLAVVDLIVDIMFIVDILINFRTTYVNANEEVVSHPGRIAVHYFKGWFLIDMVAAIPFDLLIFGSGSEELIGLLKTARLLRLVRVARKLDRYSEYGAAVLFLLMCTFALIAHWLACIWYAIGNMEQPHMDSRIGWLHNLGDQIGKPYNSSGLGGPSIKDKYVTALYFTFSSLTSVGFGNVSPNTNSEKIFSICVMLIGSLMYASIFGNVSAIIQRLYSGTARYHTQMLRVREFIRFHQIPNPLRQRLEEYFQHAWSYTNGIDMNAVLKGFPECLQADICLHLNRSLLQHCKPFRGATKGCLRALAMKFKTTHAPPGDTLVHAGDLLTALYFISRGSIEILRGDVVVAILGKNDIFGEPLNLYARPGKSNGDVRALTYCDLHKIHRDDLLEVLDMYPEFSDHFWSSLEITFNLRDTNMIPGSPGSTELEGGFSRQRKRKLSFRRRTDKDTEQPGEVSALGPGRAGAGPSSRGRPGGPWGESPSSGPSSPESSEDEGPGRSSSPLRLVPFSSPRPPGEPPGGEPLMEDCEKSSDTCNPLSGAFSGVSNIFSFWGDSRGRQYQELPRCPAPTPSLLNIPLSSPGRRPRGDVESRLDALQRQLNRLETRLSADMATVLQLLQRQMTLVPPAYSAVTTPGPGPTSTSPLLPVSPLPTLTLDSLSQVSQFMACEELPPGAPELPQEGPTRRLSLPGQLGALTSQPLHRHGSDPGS
Experiment: hERG potassium ion channel test (manual patch-clamp, CHO cells)
Format: cell-based
Settings: chinese hamster, cho cells
Value kind: IC50

Which IC50 is reported for this molecule? COc1cc(O[C@H]2C(C)(C)[C@H](NC(=O)c3ccc(N4CCC(CN5CCN6c7cc(F)c(C8CCC(=O)NC8=O)cc7CC[C@H]6C5)CC4)cc3)C2(C)C)ccc1C#N (stereo partly shown) [Trifluoroacetate of compound 1]
> 40 µM

----------
Please go through the items and note down their AUC(0-t).
Test: Pharmacokinetic test in rats
Type: in vivo, SD rats
Settings: rat, plasma, po, i.g. (5 mg/kg), vehicle 5% DMSO+5% Solutol+90% (20% SBE-β-CD)
Procedure: Experimental objective: In this experiment, a single dose of the test compound was administered to SD rats via intravenous administration and intragastric gavage, and the concentration of the test compound in plasma of the rats was measured to evaluate the pharmacokinetic profile of the test compound in the rats. […] Before analysis and detection, all samples were stored at -60°C. The samples were analysed quantitatively by LC-MS/MS. […]

COc1cc(O[C@H]2C(C)(C)[C@H](NC(=O)c3ccc(N4CCC(CN5CCN6c7cc(F)c(C8CCC(=O)NC8=O)cc7CC[C@@H]6C5)CC4)nn3)C2(C)C)ccc1C#N (some centres unmarked) [Trifluoroacetate of compound 60] = 6600 ng·h/mL

Next molecule, AUC(0-t) to be filled in.
Which AUC(0-t) is reported for this molecule? COc1cc(O[C@H]2C(C)(C)[C@H](NC(=O)c3ccc(N4CCC(CN5CCN6c7cc(F)c(C8CCC(=O)NC8=O)cc7CC[C@H]6C5)CC4)nn3)C2(C)C)ccc1C#N (some centres unmarked) [Trifluoroacetate of compound 61]
5460 ng·h/mL
